PBM binding z-score reference
Tested on: RARg homodimer (NR concentration 270 nM)
Test: PBM binding z-score (relative to random genomic background probes); higher = stronger binding; sequences stand for … in GC…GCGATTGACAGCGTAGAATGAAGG
Just the number, please.

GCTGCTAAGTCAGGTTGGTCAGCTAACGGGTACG | -0.568
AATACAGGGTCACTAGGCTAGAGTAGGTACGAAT | 5.26
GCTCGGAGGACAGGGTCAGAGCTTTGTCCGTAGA | 2.37
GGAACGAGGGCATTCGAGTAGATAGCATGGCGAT | 1.23

Would you kindly look at the next entry?
Incoming: Quick one: PBM binding z-score of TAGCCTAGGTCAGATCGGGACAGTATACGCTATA ?
Outgoing: 3.78

* * *

System: THRa:RXRa (NR concentration 90 nM, RXRa partner concentration 90 nM)
Test: PBM binding z-score (relative to random genomic background probes); higher = stronger binding; sequences stand for … in GC…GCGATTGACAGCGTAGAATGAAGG
observable: PBM binding z-score
// return just the number, without any unit appended

Recorded results for 4 sequences are shown here.
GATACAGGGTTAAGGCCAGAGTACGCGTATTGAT | 2.05
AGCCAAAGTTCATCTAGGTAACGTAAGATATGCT | 3.15
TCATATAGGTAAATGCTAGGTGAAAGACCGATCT | 1.32
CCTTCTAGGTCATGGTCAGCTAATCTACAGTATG | 3.45

Kindly review the next sequence as well.
Incoming: Looking for the measured PBM binding z-score of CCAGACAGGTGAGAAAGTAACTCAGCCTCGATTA , can you help?
Outgoing: -0.0555

* * *

Tested on: PXR:RXRa (NR concentration 270 nM, RXRa partner concentration 90 nM)
Test: PBM binding z-score (relative to random genomic background probes); higher = stronger binding; sequences stand for … in GC…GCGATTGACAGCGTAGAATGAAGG
# PBM binding z-score per record follows

Incoming: Kindly state the measured PBM binding z-score obtained for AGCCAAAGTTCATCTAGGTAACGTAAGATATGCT with PXR:RXRa (NR concentration 270 nM, RXRa partner concentration 90 nM).
Outgoing: 5.16

Incoming: Form field: PBM binding z-score recorded for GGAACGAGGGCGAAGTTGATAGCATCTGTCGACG with PXR:RXRa (NR concentration 270 nM, RXRa partner concentration 90 nM) (enter value)
Outgoing: -0.347

Incoming: Notebook: pull reported PBM binding z-score for PXR:RXRa (NR concentration 270 nM, RXRa partner concentration 90 nM), entry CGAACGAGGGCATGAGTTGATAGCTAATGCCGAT
Outgoing: 0.689

Incoming: # query: PBM binding z-score | item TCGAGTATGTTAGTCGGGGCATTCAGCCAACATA | system: PXR:RXRa (NR concentration 270 nM, RXRa partner concentration 90 nM)
Outgoing: -0.224

Incoming: Hello, I am looking for reported PBM binding z-score with PXR:RXRa (NR concentration 270 nM, RXRa partner concentration 90 nM) for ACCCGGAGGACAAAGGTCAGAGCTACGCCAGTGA . Could you help?
Outgoing: 4.14

Incoming: Give PXR:RXRa (NR concentration 270 nM, RXRa partner concentration 90 nM) PBM binding z-score for ATCTCTAGGTAAACGTTCAGTGAATCCCGAGGAT
Outgoing: -0.434

Incoming: Which PBM binding z-score is reported with PXR:RXRa (NR concentration 270 nM, RXRa partner concentration 90 nM) for this entry: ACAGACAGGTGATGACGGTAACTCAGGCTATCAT ?
Outgoing: -0.319

Incoming: What PBM binding z-score appears in the records for this sequence with PXR:RXRa (NR concentration 270 nM, RXRa partner concentration 90 nM)? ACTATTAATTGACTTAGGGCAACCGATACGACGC
Outgoing: 0.334
